Let's look at some compounds and their measured Max Response.
Target: CypA (Homo sapiens, UniProt P62937)
Sequence (P62937 whole entry): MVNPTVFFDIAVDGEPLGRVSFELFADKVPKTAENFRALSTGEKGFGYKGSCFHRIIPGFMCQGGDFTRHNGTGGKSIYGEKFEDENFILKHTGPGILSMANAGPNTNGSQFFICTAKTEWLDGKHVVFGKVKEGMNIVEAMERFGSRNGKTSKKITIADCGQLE
Test: biochemical
Type: binding
Details: SPR, Biacore, 25° C.
Experimental: CypA binding was carried out using surface plasmon resonance as described (Warne J Biol Chem. 2016 Feb. 26; 291 (9): 4356-73). Surface Plasmon Resonance (SPR) using Biacore at 25° C. was used to study the binding interactions between CypA and various inhibitors. The SPR binding experiments used a duel flow cell with a blank reference. […]
ASSAY READOUT: Max Response (RU)

[[record]]
substance_smiles = "CC[C@@H]1NC(=O)[C@H]([C@H](O)[C@H](C)C/C=C/c2ccc(C(=O)OCCn3ccnc3)c3ccccc23)N(C)C(=O)[C@H](C(C)C)N(C)C(=O)[C@H](CC(C)C)N(C)C(=O)[C@H](CC(C)C)N(C)C(=O)[C@@H](C)NC(=O)[C@H](C)NC(=O)[C@H](CC(C)C)N(C)C(=O)[C@H](C(C)C)NC(=O)[C@H](CC(C)C)N(C)C(=O)CN(C)C1=O"
test_system = "CypA (Homo sapiens, UniProt P62937)"
assay_readout = "Max Response"
uom = "RU"
obs_value = 14.0

[[record]]
substance_smiles = "CC[C@@H]1NC(=O)[C@H]([C@H](O)[C@H](C)CC=Cc2ccc(C(=O)OCCn3ccnc3)cc2OC(C)C)N(C)C(=O)[C@H](C(C)C)N(C)C(=O)[C@H](CC(C)C)N(C)C(=O)[C@H](CC(C)C)N(C)C(=O)[C@@H](C)NC(=O)[C@H](C)NC(=O)[C@H](CC(C)C)N(C)C(=O)[C@H](C(C)C)NC(=O)[C@H](CC(C)C)N(C)C(=O)CN(C)C1=O"
test_system = "CypA (Homo sapiens, UniProt P62937)"
assay_readout = "Max Response"
uom = "RU"
obs_value = 14.5

[[record]]
substance_smiles = "CC[C@@H]1NC(=O)[C@H]([C@H](O)[C@H](C)CC=Cc2ccc(C(=O)OCCn3ccnc3)cc2OC)N(C)C(=O)[C@H](C(C)C)N(C)C(=O)[C@H](CC(C)C)N(C)C(=O)[C@H](CC(C)C)N(C)C(=O)[C@@H](C)NC(=O)[C@H](C)NC(=O)[C@H](CC(C)C)N(C)C(=O)[C@H](C(C)C)NC(=O)[C@H](CC(C)C)N(C)C(=O)CN(C)C1=O"
test_system = "CypA (Homo sapiens, UniProt P62937)"
assay_readout = "Max Response"
uom = "RU"
obs_value = 9.8


====

biological target: CypA (Homo sapiens); test: biochemical; assay type: binding; conditions: SPR, Biacore, 25° C.
ASSAY READOUT: Max Response

[[record]]
substance_smiles = "CC[C@@H]1NC(=O)[C@H]([C@H](O)[C@H](C)C/C=C/c2ccc(C(=O)OCCn3ccnc3)cc2)N(C)C(=O)[C@H](C(C)C)N(C)C(=O)[C@H](CC(C)C)N(C)C(=O)[C@H](CC(C)C)N(C)C(=O)[C@@H](C)NC(=O)[C@H](C)NC(=O)[C@H](CC(C)C)N(C)C(=O)[C@H](C(C)C)NC(=O)[C@H](CC(C)C)N(C)C(=O)CN(C)C1=O"
test_system = "CypA (Homo sapiens)"
obs_value = "27.0 RU"


====

target: CypA (Homo sapiens); test: biochemical; assay type: binding; conditions: read-out: Kd (Affinity); SPR, Biacore, 25° C.
ASSAY READOUT: Kd (nM)

[[record]]
substance_smiles = "CC[C@@H]1NC(=O)[C@H]([C@H](O)[C@H](C)CC=Cc2ccc(C(=O)OCCn3ccnc3)cc2OC(C)C)N(C)C(=O)[C@H](C(C)C)N(C)C(=O)[C@H](CC(C)C)N(C)C(=O)[C@H](CC(C)C)N(C)C(=O)[C@@H](C)NC(=O)[C@H](C)NC(=O)[C@H](CC(C)C)N(C)C(=O)[C@H](C(C)C)NC(=O)[C@H](CC(C)C)N(C)C(=O)CN(C)C1=O"
obs_value = 2920

[[record]]
substance_smiles = "CC[C@@H]1NC(=O)[C@H]([C@H](O)[C@H](C)CC=Cc2ccc(C(=O)OCCn3ccnc3)cc2C)N(C)C(=O)[C@H](C(C)C)N(C)C(=O)[C@H](CC(C)C)N(C)C(=O)[C@H](CC(C)C)N(C)C(=O)[C@@H](C)NC(=O)[C@H](C)NC(=O)[C@H](CC(C)C)N(C)C(=O)[C@H](C(C)C)NC(=O)[C@H](CC(C)C)N(C)C(=O)CN(C)C1=O"
obs_value = 1310

[[record]]
substance_smiles = "CC[C@@H]1NC(=O)[C@H]([C@H](O)[C@H](C)CC=Cc2ccc(C(=O)OCCn3ccnc3)cc2C(F)(F)F)N(C)C(=O)[C@H](C(C)C)N(C)C(=O)[C@H](CC(C)C)N(C)C(=O)[C@H](CC(C)C)N(C)C(=O)[C@@H](C)NC(=O)[C@H](C)NC(=O)[C@H](CC(C)C)N(C)C(=O)[C@H](C(C)C)NC(=O)[C@H](CC(C)C)N(C)C(=O)CN(C)C1=O"
obs_value = 6070

[[record]]
substance_smiles = "CC[C@@H]1NC(=O)[C@H]([C@H](O)[C@H](C)CC=Cc2ccc(C(=O)OCCn3ccnc3)cc2OC)N(C)C(=O)[C@H](C(C)C)N(C)C(=O)[C@H](CC(C)C)N(C)C(=O)[C@H](CC(C)C)N(C)C(=O)[C@@H](C)NC(=O)[C@H](C)NC(=O)[C@H](CC(C)C)N(C)C(=O)[C@H](C(C)C)NC(=O)[C@H](CC(C)C)N(C)C(=O)CN(C)C1=O"
obs_value = 2660


====

Let's look at some compounds and their measured kon.
biological target: CypA (Homo sapiens, UniProt P62937); test: biochemical; format: binding
ASSAY READOUT: kon (M⁻¹ s⁻¹)

[[record]]
compound = "CC[C@@H]1NC(=O)[C@H]([C@H](O)[C@H](C)C/C=C/c2ccc(C(=O)OCCn3ccnc3)c3ccccc23)N(C)C(=O)[C@H](C(C)C)N(C)C(=O)[C@H](CC(C)C)N(C)C(=O)[C@H](CC(C)C)N(C)C(=O)[C@@H](C)NC(=O)[C@H](C)NC(=O)[C@H](CC(C)C)N(C)C(=O)[C@H](C(C)C)NC(=O)[C@H](CC(C)C)N(C)C(=O)CN(C)C1=O [BG147]"
uom = "M⁻¹ s⁻¹"
obs_value = 9750

[[record]]
compound = "CC[C@@H]1NC(=O)[C@H]([C@H](O)[C@H](C)CC=Cc2c(OC)cc(C(=O)OCCn3ccnc3)cc2OC)N(C)C(=O)[C@H](C(C)C)N(C)C(=O)[C@H](CC(C)C)N(C)C(=O)[C@H](CC(C)C)N(C)C(=O)[C@@H](C)NC(=O)[C@H](C)NC(=O)[C@H](CC(C)C)N(C)C(=O)[C@H](C(C)C)NC(=O)[C@H](CC(C)C)N(C)C(=O)CN(C)C1=O [BG186]"
uom = "M⁻¹ s⁻¹"
obs_value = 14600

[[record]]
compound = "CC[C@@H]1NC(=O)[C@H]([C@H](O)[C@H](C)CC=Cc2ccc(C(=O)OCCn3ccnc3)cc2C)N(C)C(=O)[C@H](C(C)C)N(C)C(=O)[C@H](CC(C)C)N(C)C(=O)[C@H](CC(C)C)N(C)C(=O)[C@@H](C)NC(=O)[C@H](C)NC(=O)[C@H](CC(C)C)N(C)C(=O)[C@H](C(C)C)NC(=O)[C@H](CC(C)C)N(C)C(=O)CN(C)C1=O [BG150]"
uom = "M⁻¹ s⁻¹"
obs_value = 11100

